Origin of measurements: PubChem BioAssay AID720664

target: Galactokinase (Homo sapiens) (UniProt P51570); test: qHTS for Inhibitors of Human Galactokinase (GALK): SAR round 3; details: ADP detection luminescence, 1 h; series mostly up to 57.5 µM
Sequence (P51570 whole entry, looked up): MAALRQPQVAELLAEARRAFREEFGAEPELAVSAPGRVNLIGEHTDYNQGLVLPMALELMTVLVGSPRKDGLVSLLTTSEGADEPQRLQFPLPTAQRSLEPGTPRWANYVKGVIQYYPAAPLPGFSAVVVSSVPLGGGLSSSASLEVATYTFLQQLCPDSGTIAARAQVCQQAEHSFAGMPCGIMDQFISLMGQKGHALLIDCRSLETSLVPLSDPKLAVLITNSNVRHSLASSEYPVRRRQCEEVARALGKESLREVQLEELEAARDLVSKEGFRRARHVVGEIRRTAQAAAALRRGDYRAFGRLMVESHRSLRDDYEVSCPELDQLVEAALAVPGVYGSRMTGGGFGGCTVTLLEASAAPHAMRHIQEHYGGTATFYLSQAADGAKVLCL
Records with an inconclusive call do not appear. Activity calls are given as the source filed them. The call rests on the fitted dose curve; in most records, active means well fitted inhibition curve with a large enough effect; inconclusive means small, poorly fitted or top-dose-only effect; inactive means flat fitted curve, though single readings scatter.
Classes used: active, inactive

COMPOUND	CAT
O=C1CCCC2=C1C(c1ccccc1)N=C(Nc1nc3ccccc3o1)N2 (configuration not stated)	inactive
COC(=O)c1ccccc1NC(=O)c1ccccc1OC(F)F	inactive
Cc1ccc2oc(NC3=NC(c4ccccc4Cl)C4=C(CCCC4=O)N3)nc2c1 (configuration not stated)	active
CC1=C(C(=O)NC2CC2)C(c2nn(C)cc2Cl)N=C(Nc2nc3ccccc3o2)N1 (configuration not stated)	inactive
O=C1CCCC2=C1C1(CCCC1)N=C(Nc1nc3cc(Cl)ccc3o1)N2	inactive
Cc1cccc2oc(NC3=NC(c4[nH]ncc4Cl)C4=C(CCCC4=O)N3)nc12 (configuration not stated)	inactive
O=C1CCCC2=C1C1(CCCC1)N=C(Nc1nc3cc(-c4ccccc4)ccc3o1)N2	inactive
O=C1C2=C(CN1c1ccccc1)NC(Nc1nc3ccccc3o1)=NC2c1ccccc1Cl (configuration not stated)	inactive
O=C1CCCC2=C1[C@@]1(CCC(c3ccccc3)C1)N=C(Nc1nc3ccccc3o1)N2 (some centres not stated)	inactive
O=C1CCCC2=C1C(c1[nH]ncc1Cl)NC(=NCc1ccccc1)N2 (configuration not stated)	inactive
O=c1cc(CN2CCCN(c3ccc(C(F)(F)F)cn3)CC2)nc2ccccn12	inactive
CC1=C(C(=O)n2ccc3ccccc32)C(c2ccccc2Br)N=C(Nc2nc3ccccc3o2)N1 (configuration not stated)	inactive
O=C1CCCC2=C1C(c1[nH]ncc1Cl)N=C(Nc1nc3c(Cl)cccc3o1)N2 (configuration not stated)	inactive
Cc1nc(Nc2nc3ccccc3o2)nc(-c2ccccc2Br)c1C(=O)NCc1ccccc1	inactive
CCC1CCC2(C1)N=C(Nc1nc3ccccc3o1)NC1=C2C(=O)CCC1 (configuration not stated)	inactive
CC1=C(C(=O)NC2CCCC2)C(c2[nH]ncc2Cl)N=C(Nc2nc3ccccc3o2)N1 (configuration not stated)	inactive
N#CC1=C(Nc2nc3ccccc3o2)OC2=C(C(=O)CCC2)C1c1[nH]ncc1Cl (configuration not stated)	inactive
O=C1CCCC2=C1C(c1[nH]ncc1Cl)N=C(Nc1nc3cc(Cl)ccc3o1)N2 (configuration not stated)	inactive
COc1ccccc1NC(=O)C1=C(C)NC(Nc2nc3ccccc3o2)=NC1c1ccccc1Br (configuration not stated)	inactive
O=C1CCCC2=C1C(c1[nH]ncc1Cl)NC(=NCc1ccoc1)N2 (configuration not stated)	inactive
O=C(Nc1nnc(S(=O)(=O)N2CCOCC2)s1)c1cccc(Br)c1	inactive
O=C1CCCC2=C1C1(CCCOC1)N=C(Nc1nc3ccccc3o1)N2 (configuration not stated)	inactive
